- TARGET_ENTITY: T1, human GARP-TGF-β1 complex (recombinant complex of human GARP and latent human TGF-β1) (human, UniProt Q14392 20-627; P01137 30-278; P01137 279-390)
- T1 construct: also called huGARP-TGF-β1; hGARP-TGF-β1
- TEST_DESCRIPTION: SPR Biacore T200, CM5 chip coated with the antibody at 200 RU, complex in solution
PROPERTY_LABEL: Fold-difference (KD vs 39B6-A) (fold)
Dear colleague, please return just the value in fold, with no unit written.

For orientation, consider the following solved cases.
39B6-ANR IgG4 S228P (antibody, V domains shown, Variant of 39B6-A in IgG4 S228P format; Positions are Kabat-type) VH: QVQLVQPGAEVRKPGASVKVSCKASGYRFTSYYIDWVRQAPGQGLEWMGRIDPEDAGTKYAQKFQGRVTMTADTSTSTVYVELSSLRSEDTAVYYCARNRWETVVVGDLMYEYEYWGQGTLVTVSS VL: DIQMTQSPSSLSASVGDRVTITCQASQSISSYLAWYQQKPGQAPKILIYGASRLKTGVPSRFSGSGSGTSFTLTISSLEPEDAATYYCQQYASVPVTFGQGTKVEIKR
1.5
39B6-AYE (ARGX-115), IgG4 S228P (antibody, V domains shown) VH: QVQLVQPGAEVRKPGASVKVSCKASGYRFTSYYIDWVRQAPGQGLEWMGRIDPEDAGTKYAQKFQGRVTMTADTSTSTVYVELSSLRSEDTAVYYCARYEWETVVVGDLMYEYEYWGQGTLVTVSS VL: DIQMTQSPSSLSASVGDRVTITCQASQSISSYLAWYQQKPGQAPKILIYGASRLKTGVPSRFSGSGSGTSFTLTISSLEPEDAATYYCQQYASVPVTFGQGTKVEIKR
1.2

Let us move to another entry and its Fold-difference (KD vs 39B6-A).
GET /values?readout=Fold-difference (KD vs 39B6-A)&item= 39B6-AVE IgG4 S228P (antibody, V domains shown, Variant of 39B6-A in IgG4 S228P format; Positions are Kabat-type) VH: QVQLVQPGAEVRKPGASVKVSCKASGYRFTSYYIDWVRQAPGQGLEWMGRIDPEDAGTKYAQKFQGRVTMTADTSTSTVYVELSSLRSEDTAVYYCARVEWETVVVGDLMYEYEYWGQGTLVTVSS VL: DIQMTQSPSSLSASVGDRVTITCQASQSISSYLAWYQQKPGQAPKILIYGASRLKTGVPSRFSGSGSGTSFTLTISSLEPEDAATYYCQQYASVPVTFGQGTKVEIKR
1
